These measurements were taken from paper PMC7939381.

Target: T1, 14-3-3η, full length, N-terminally His6-tagged (human, UniProt Q04917 1-246)
T1 chain: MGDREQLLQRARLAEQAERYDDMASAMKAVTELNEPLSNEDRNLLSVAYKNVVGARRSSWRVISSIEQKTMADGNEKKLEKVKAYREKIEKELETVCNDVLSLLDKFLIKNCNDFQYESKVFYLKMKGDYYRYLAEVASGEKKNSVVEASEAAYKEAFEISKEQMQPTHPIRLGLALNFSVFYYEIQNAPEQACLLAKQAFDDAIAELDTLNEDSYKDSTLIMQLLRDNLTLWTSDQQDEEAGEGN
Assay: ITC; replicate A
Where no end group is shown, it is not given here. [ ]: non-standard residue; d: D form. pS = N[C@@H](COP(=O)(O)O)C(=O)O

Binder | Kd
NKNAN[pS]SPV [peptide 1, APN 38–46 pSer43, as used in ITC] | 2.48 µM
